Test system: SNB-19 CNS
assay remarks: NCI-60 one-dose screen, 48 h
experimental parameters: 10 µM unless noted
About 83,000 compounds went through this panel and 20% of them were active in at least one assay; those are over-represented in the sample as a whole. Calls of active or inactive are those of the source. The calls were made as follows: active = growth percent below 10; inactive = the rest.
Outcome field: choose from yes (active), no (inactive)

q: Please state the recorded outcome for this compound: O=C1/C(=C\c2ccc3nccnc3c2)SC(=S)N1CCc1ccc(O)cc1
a: no

q: // param item: C=CC[Se]C(=O)Cc1c(C)n(C(=O)c2ccc(Cl)cc2)c2ccc(OC)cc12 ; yields the recorded call
a: yes

q: For CCn1cc(C(=O)NNC(=S)Nc2ccc(C)cc2)c(=O)c2ccc(C)nc21 , which call appears in the assay record?
a: no

q: Please state the recorded outcome for this compound: CCCOC(=O)Nc1nc2ccc(SCC(C)C)cc2s1
a: no

q: Can you look up the reported call for COC(=O)CC[C@@H]1O[C@@H](c2cccc(C(F)(F)F)c2)[C@@H](O)[C@H]1O for me?
a: no

q: For O=C(Nc1cccc(-c2ccc(N3CCOCC3)nn2)c1)Nc1cccc(C(F)(F)F)c1 , which call appears in the assay record?
a: no

q: So what was the verdict on COc1ccc(Nc2ncc(Br)c(NCCCNC(=O)C3CCCC3)n2)cc1 in this test?
a: no

q: For this compound, state the assay outcome: CCCCCCCCCCCCCCCCOCCCOP(=O)(O)C1CCCN(O)C1=O (stereo unspecified)
a: no

q: Could you please tell me the result logged for CCCn1cc2c(=O)nc3sc(Cc4ccccc4)c(C)n3c2n1 in this assay?
a: no

q: Please indicate how the test categorized O=C1Nc2ccccc2/C1=C/c1nc2ccccc2c(=O)[nH]1 .
a: no

q: Please share the test call associated with Oc1ccc(Cl)cc1/C=N\NC(=S)N/N=C/c1cc(Cl)ccc1O .
a: no

q: What did this assay record as the result for Oc1c(Br)cc(Br)c2ccc(Cn3cc(-c4ccc(C(F)(F)F)cc4)nn3)nc12 ?
a: no

q: Recorded test call requested for Cc1ccc2c(Cn3cc(CSc4nc5ccccc5o4)nn3)cc(=O)oc2c1
a: no

q: Hi team, can someone confirm the assay call for CCCCCCCCCCC(CN(CC)CC)C(O)c1ccccc1 (stereo unspecified) ?
a: no

q: What was the test verdict on O=C(N/N=C/c1c(Cl)cccc1Cl)c1cccnc1Nc1cccc(C(F)(F)F)c1 ?
a: no

q: # lookup: test call for COc1cc2cc(NCc3cccc(Cl)c3)nc(C)c2cc1OC
a: no

q: Field: outcome | Entry: Nc1cc(C(=O)NC[C@H]2CN(c3ccc(N4CCC(C(=O)O)CC4)cc3)C(=O)O2)ccc1Cl
a: no

q: // return assay outcome for CCOC(=O)c1ccc2c(c1)nc(-c1ccccc1)n2C1CCCCC1
a: no

q: Recorded test outcome, item COc1ccc(/C=C(\C#N)n2nnc3cc(Cl)ccc32)cc1
a: yes

q: Assay outcome for O=C(/C=C/c1cccs1)Nc1ncc(Cc2ccccc2F)s1 : what was it?
a: no

q: # lookup: test call for NC(N)=NCCCCCNc1noc(Cc2c[nH]c3cc(Br)ccc23)n1
a: no

q: Answer briefly: the call reported for CCOC(=O)NC(C)C in this assay.
a: no

q: Fill in: this test's call for O=S(=O)(c1ccccc1)n1cc2c(c1)-c1nc(Nc3ncccn3)sc1CC2 is ___
a: no

q: Entry CSc1nc2ncc([N+](=O)[O-])c(=O)n2[nH]1 : call = ?
a: no

q: What classification did COc1ccc(Nc2nc(-c3cc(O)c(C)c(C)c3O)cs2)cc1 end up with in this test?
a: no

q: Could you check what this test reported for CCN(CC)c1ccc(\C=N/N=C(N)/C(N)=N\N=C/c2ccc(N(CC)CC)cc2)cc1 ?
a: no

q: Status in this test for COc1ccc(C(=O)Nc2cccc(-c3cc(=O)c4c(OC)c(OC)c(OC)cc4o3)c2)cc1 ?
a: no

q: What was the test verdict on C=C1C(=O)O[C@H]2[C@H]1CC/C(COC(=O)c1cc3ccccc3s1)=C\CC[C@@]1(C)O[C@@H]21 ?
a: yes

q: Per the assay record, what outcome was assigned to Cn1c(=O)cc2c3c(c(NCCCO)ccc31)C(=O)c1ccccc1-2 ?
a: no

q: What did the test return for NC(=O)c1c(NC(=O)c2ccc3ccccc3c2)sc2c1CCC(=O)C2 ?
a: no

q: What did this assay record as the result for CC(=O)N1N=C(c2ccc(Nc3nc(Nc4ccccc4)nc(Nc4ccccc4)n3)cc2)CC1c1cccc([N+](=O)[O-])c1 (stereo unspecified) ?
a: no

q: Per the records of this test, what outcome belongs to NC(=O)c1ccc(-c2c3ccccc3cc3c2ccc2ccccc23)cc1 ?
a: no

q: Recorded test call requested for O=c1scc(-c2ccc(C(F)(F)F)cc2)s1
a: no

q: Short answer needed: outcome of this test for CCCCCCCCCCCCCCCCCCOc1ccccc1CC(=O)OCC[N+](C)(C)C ?
a: no

q: // return assay outcome for Cc1c(-c2ccc(O)cc2)n(Cc2ccc(OCCN3CCCCCC3)cc2)c2ccc(O)cc12
a: no

q: What classification did N#CC1=C(N)Oc2c(ccc3ccccc23)C1c1ccccc1 (stereo unspecified) end up with in this test?
a: no

q: Which outcome was entered for the compound O=C1C(Cl)=C(Nc2ccc(S(=O)(=O)N3CCOCC3)cc2)C(=O)c2ccccc21 in this test?
a: no

q: I'd appreciate the recorded outcome for O=C1NC2(Nc3ccccc31)C(=O)Nc1c(Cl)cc(Cl)cc12 (stereo unspecified) from this test.
a: no

q: Identify the outcome logged in this assay for the compound shown: COc1ccc(-c2cc(-c3ccc(Cl)cc3)c(C#N)c(=O)n2Cc2ccc(C(=O)Nc3ccccc3N)cc2)cc1
a: no

q: Field: outcome | Entry: C#CCNC(=O)[C@H](CC)[C@H]1CC[C@H](C)[C@H]([C@@H](C)[C@H](O)[C@H](C)C(=O)[C@H](CC)C2O[C@]3(C=CC(=O)[C@]4(CC[C@@](C)([C@H]5CC[C@](O)(CC)[C@H](C)O5)O4)O3)[C@H](C)C[C@@H]2C)O1 (stereo partly specified)
a: no

q: Record lookup: outcome of this test for CN(C)CC(C)(C)C(=O)/C=C/c1ccccc1 ?
a: yes
